- assay text: self-splicing fitness, log relative to wild type (ln ratio); higher = more splicing; Tetrahymena group I intron in knt gene, E. coli kanamycin selection, DiMSum; sequences stand for … in CUCUCU…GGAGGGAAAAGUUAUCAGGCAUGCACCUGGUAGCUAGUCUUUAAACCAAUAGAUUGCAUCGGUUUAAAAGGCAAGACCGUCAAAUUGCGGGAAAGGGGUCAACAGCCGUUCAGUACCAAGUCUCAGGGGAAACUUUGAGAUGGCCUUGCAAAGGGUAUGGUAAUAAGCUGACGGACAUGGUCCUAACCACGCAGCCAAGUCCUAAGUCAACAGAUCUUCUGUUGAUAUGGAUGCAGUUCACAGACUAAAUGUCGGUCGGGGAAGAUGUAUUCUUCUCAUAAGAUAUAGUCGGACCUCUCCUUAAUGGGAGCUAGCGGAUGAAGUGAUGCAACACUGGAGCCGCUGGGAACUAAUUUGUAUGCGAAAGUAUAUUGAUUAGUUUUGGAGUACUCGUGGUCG;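 note: selection with 25 µg/mL kanamycin versus none on LB agar overnight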
- cond: 37 °C
measurement label: self-splicing fitness (ln)

// solved cases for self-splicing fitness (ln) follow
GCUGAGCAAUAUUACGGCGU = 0.234
AGAAAGCAAUAUUACGAUUG = -1.93
GACUAGCAAUAUUACGGCUC = 0.351
GAUCAGCAAUAUUACGAGUA = -0.817
ACCCAGCAAUAUUACGAAAU = -1.21
ACAUAGCAAUAUUACGGUCC = -1.77

Consider the following items and state reported self-splicing fitness (ln) for each.
1. CGGCAGCAAUAUUACGUUAC
2. AACCAGCAAUAUUACGAGAA

Outgoing:
-3.3
-1.02

----------
- assay text: self-splicing fitness, log relative to wild type (ln ratio); higher = more splicing; Tetrahymena group I intron in knt gene, E. coli kanamycin selection, DiMSum; sequences stand for … in CUCUCU…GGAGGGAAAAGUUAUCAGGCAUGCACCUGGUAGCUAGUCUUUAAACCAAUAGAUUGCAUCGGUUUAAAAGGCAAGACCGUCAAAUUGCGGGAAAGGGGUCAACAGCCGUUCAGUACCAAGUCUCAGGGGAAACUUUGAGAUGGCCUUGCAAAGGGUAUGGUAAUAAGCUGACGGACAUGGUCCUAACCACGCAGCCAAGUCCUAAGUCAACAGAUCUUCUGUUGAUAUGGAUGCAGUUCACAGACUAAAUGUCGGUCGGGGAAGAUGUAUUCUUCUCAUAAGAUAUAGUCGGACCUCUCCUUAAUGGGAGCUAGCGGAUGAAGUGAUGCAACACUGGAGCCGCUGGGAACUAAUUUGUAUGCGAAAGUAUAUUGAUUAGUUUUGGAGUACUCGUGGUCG
- cond: 37 °C
measurement label: self-splicing fitness (ln)
Answers are plain numbers.

// solved cases for self-splicing fitness (ln) follow
GUAAAGCAAUAUUACGAGUU = -0.815
GAACAGCAAUAUUACGUCGG = -1.85
GCGCAGCAAUAUUACGGCCG = -2.26
CCAAAGCAAUAUUACGCGGC = -3.15
AGGGAGCAAUAUUACGUCUC = -2.54
ACGCAGCAAUAUUACGCGCG = -2.07
AUGUAGCAAUAUUACGGUGG = -2.77
AGGGAGCAAUAUUACGCGGU = -3.05
CAUCAGCAAUAUUACGACUU = -0.408
AGCUAGCAAUAUUACGGGGA = -1.68

Consider the following items and state reported self-splicing fitness (ln) for each.
1. AGGUAGCAAUAUUACGGUAA
2. CUGGAGCAAUAUUACGGAUC
3. AAGUAGCAAUAUUACGAACU
4. UAUUAGCAAUAUUACGGCGG
5. AGCAAGCAAUAUUACGGCUA
6. ACAGAGCAAUAUUACGUGGU

Outgoing:
[-1.2, -2.87, 0.139, -0.195, -0.869, -2.37]

Consider the following items and state reported self-splicing fitness (ln) for each.
1. CCUCAGCAAUAUUACGCAGC
2. UUUUAGCAAUAUUACGCGCA
3. UGCGAGCAAUAUUACGUUAG

Outgoing:
[-2.49, -0.0853, -2.01]

Consider the following items and state reported self-splicing fitness (ln) for each.
1. ACUGAGCAAUAUUACGCCGU
2. CAGUAGCAAUAUUACGCCCU
3. CGUUAGCAAUAUUACGACGU
4. GGUGAGCAAUAUUACGCGUU
5. UUUCAGCAAUAUUACGGAUU
6. ACCCAGCAAUAUUACGACGG
7. CGCUAGCAAUAUUACGGGCA
8. CAAGAGCAAUAUUACGCUCU

Outgoing:
[-2.31, -1.3, -2.05, -0.173, -0.55, -0.9, -0.269, -1.86]

Consider the following items and state reported self-splicing fitness (ln) for each.
1. UUUUAGCAAUAUUACGUUAA
2. GAUAAGCAAUAUUACGGUGG
3. CUUGAGCAAUAUUACGCAGA
4. GAAAAGCAAUAUUACGCGGU
5. GCCCAGCAAUAUUACGUGAA

Outgoing:
[-2.52, -2.24, -1.91, -1.21, 0.177]

----------
- assay text: self-splicing fitness, log relative to wild type (ln ratio); higher = more splicing; Tetrahymena group I intron in knt gene, E. coli kanamycin selection, DiMSum; sequences stand for … in CUCUCU…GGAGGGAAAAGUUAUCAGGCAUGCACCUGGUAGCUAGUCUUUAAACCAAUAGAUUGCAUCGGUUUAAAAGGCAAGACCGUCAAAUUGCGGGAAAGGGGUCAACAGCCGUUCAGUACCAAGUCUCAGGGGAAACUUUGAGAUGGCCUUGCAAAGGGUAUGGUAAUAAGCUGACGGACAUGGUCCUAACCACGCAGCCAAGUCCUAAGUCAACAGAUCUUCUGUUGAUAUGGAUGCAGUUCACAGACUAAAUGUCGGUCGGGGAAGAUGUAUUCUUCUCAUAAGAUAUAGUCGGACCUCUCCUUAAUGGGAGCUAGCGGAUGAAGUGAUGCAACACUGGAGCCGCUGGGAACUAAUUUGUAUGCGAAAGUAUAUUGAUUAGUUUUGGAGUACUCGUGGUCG
- cond: 37 °C
Please note: True applies when self-splicing fitness (ln) is -0.8 or greater, and False applies otherwise.

See these solved cases before continuing.
GUACAGCAAUAUUACGCAAC = True
CAACAGCAAUAUUACGGGCC = False
GGGUAGCAAUAUUACGACCA = True
GAAAAGCAAUAUUACGUCUC = True
UUGCAGCAAUAUUACGCCAA = True

Incoming: Kindly determine if self-splicing fitness (ln) recorded for "GGUAAGCAAUAUUACGACUC" is above or exactly -0.8.
Outgoing: True

Incoming: What about "UAGUAGCAAUAUUACGAUCU" ?
Outgoing: True

Incoming: What about "UCACAGCAAUAUUACGAGUU" ?
Outgoing: False

Incoming: What about "CGACAGCAAUAUUACGAAAG" ?
Outgoing: True

Incoming: What about "CAGGAGCAAUAUUACGGCAG" ?
Outgoing: False

Incoming: What about "UAAAAGCAAUAUUACGAAGG" ?
Outgoing: False

Incoming: What about "GGCUAGCAAUAUUACGAUGA" ?
Outgoing: True

Incoming: What about "GCCAAGCAAUAUUACGUUCA" ?
Outgoing: False

Incoming: What about "AAACAGCAAUAUUACGCACA" ?
Outgoing: True

Incoming: What about "CCCUAGCAAUAUUACGCCAU" ?
Outgoing: False

Incoming: What about "CCAAAGCAAUAUUACGUGGA" ?
Outgoing: False

Incoming: What about "GGGCAGCAAUAUUACGUACU" ?
Outgoing: False

Incoming: What about "CACAAGCAAUAUUACGCGAA" ?
Outgoing: False

Incoming: What about "UCUCAGCAAUAUUACGCAGG" ?
Outgoing: False

Incoming: What about "AUCAAGCAAUAUUACGUUCG" ?
Outgoing: True

Incoming: What about "GCUGAGCAAUAUUACGUCGC" ?
Outgoing: False

Incoming: What about "GUGCAGCAAUAUUACGCACU" ?
Outgoing: False

Incoming: What about "ACCUAGCAAUAUUACGCCAA" ?
Outgoing: False

Incoming: What about "AUCCAGCAAUAUUACGAUUC" ?
Outgoing: False

Incoming: What about "UUCAAGCAAUAUUACGGCCC" ?
Outgoing: True

Incoming: What about "CACAAGCAAUAUUACGCGCA" ?
Outgoing: False

Incoming: What about "GUCAAGCAAUAUUACGAUUC" ?
Outgoing: True

Incoming: What about "GUGAAGCAAUAUUACGUUUU" ?
Outgoing: False

Incoming: What about "CCCAAGCAAUAUUACGAGUG" ?
Outgoing: False

----------
- assay text: self-splicing fitness, log relative to wild type (ln ratio); higher = more splicing; Tetrahymena group I intron in knt gene, E. coli kanamycin selection, DiMSum; sequences stand for … in CUCUCU…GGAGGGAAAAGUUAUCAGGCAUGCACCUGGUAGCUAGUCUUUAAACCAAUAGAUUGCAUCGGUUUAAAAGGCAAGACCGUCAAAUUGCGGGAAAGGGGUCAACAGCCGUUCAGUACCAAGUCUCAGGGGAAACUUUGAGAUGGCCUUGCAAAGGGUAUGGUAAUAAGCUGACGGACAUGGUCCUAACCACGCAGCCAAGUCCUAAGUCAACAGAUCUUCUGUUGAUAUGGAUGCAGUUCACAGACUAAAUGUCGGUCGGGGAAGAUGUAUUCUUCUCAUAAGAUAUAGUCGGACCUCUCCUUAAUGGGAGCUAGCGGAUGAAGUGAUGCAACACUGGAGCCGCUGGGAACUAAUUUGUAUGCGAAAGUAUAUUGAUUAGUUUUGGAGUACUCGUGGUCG
- cond: 30 °C
For each record, write down the corresponding self-splicing fitness (ln).
Numbers only.

// solved cases for self-splicing fitness (ln) follow
GGCAAGCAAUAUUACGUGGC = -3.53
CAGGAGCAAUAUUACGGCAG = -1.41
AGGUAGCAAUAUUACGAAGC = -3.82

Consider the following items and state reported self-splicing fitness (ln) for each.
1. UCCAAGCAAUAUUACGGCAG
2. UGUAAGCAAUAUUACGUAUG
3. AAGUAGCAAUAUUACGAGUG
4. UCGCAGCAAUAUUACGCGAU
5. CUCCAGCAAUAUUACGCUUA

Outgoing:
1. -4.85
2. -1.11
3. -3.16
4. -2.55
5. -4.14
